Where do the numbers come from? From patent US20100184701A1.

Molecular target: T1, rat angiotensin 2 type 1 receptor (rat, UniProt P25095 1-359)
T1 sequence (looked up): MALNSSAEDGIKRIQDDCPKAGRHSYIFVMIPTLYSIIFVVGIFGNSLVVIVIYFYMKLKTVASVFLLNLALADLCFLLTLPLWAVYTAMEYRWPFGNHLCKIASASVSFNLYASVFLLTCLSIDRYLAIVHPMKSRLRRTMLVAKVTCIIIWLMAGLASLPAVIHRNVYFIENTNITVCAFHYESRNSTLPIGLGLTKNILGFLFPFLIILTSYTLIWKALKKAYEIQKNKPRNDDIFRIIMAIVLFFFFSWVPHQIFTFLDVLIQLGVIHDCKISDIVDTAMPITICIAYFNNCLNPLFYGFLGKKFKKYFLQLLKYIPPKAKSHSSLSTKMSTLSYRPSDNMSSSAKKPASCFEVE
Experiment: cell-based or functional assay
Non-standard residues stand in square brackets, D forms with d. No end group written: not given here. Sar = CNCC(=O)O
Exercise: for every item that follows, state its recorded IP One Max (%).
Answers are plain numbers, in %.

// below: answered binders
Binder	Reading Unit	IP One Max (%)
[Sar]RVYVH-NH2 (N-terminus assumed; SMILES CNCC(=O)N[C@@H](CCCNC(=N)N)C(=O)N[C@H](C(=O)N[C@@H](Cc1ccc(O)cc1)C(=O)N[C@H](C(=O)N[C@@H](Cc1c[nH]cn1)C(N)=O)C(C)C)C(C)C) [SEQ ID NO: 55]	%	98.8
RVYIHPRVYIHPRVYIHP (cyclic, as printed: Cyclo(...)) [SEQ ID NO: 36]	%	19.2
ARVYIHPA (NMAla (N-methyl-L-alanine) at 1; D-Ala at 8) [SEQ ID NO: 44]	%	14.6

Problem: Need IP One Max (%), item [Sar]RVYKHP-NH2 (N-terminus assumed; SMILES CNCC(=O)N[C@@H](CCCNC(=N)N)C(=O)N[C@H](C(=O)N[C@@H](Cc1ccc(O)cc1)C(=O)N[C@@H](CCCCN)C(=O)N[C@@H](Cc1c[nH]cn1)C(=O)N1CCC[C@H]1C(N)=O)C(C)C) [SEQ ID NO: 43]
Solution: 17.9
